All values here come from PubChem BioAssay AID602449.

- experimental.protocol: blockers of Ca2+-induced mitochondrial swelling – biochemical, isolated mouse mitochondria, absorbance, primary screen (AID 602449);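 note: 0% = DMSO wells given calcium and 100% = 1 mM EGTA wells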
- condition.parameters: 30 min, at 10 µM, active compounds read high
The whole screen tested about 360,000 compounds, of which about 5,000 (1.4%) were called active. Shown is part of a subset that was picked to be rich in actives.
property.measured: inhibition (%)
One number for each entry, in %.

{"compound": "Cc1ccccc1C(=O)NC(=S)Nc1ccc(N2CCN(C(=O)c3ccccc3)CC2)cc1", "u": "%", "inhibition": 57.1}
{"compound": "CCOc1cccc2c1OC1(CCCCC1)N1N=C(c3cccnc3)CC21 (stereo unspecified)", "u": "%", "inhibition": 0.5}
{"compound": "COc1ccc(S(=O)(=O)NCCOc2ccccc2)cc1F", "u": "%", "inhibition": 0.7}
{"compound": "Cc1ccccc1C(=O)NC(=S)NC1CC1", "u": "%", "inhibition": 1.7}
{"compound": "O=C(Cn1nc(Cc2cccnc2)c2ccccc2c1=O)NCC1COc2ccccc2O1 (stereo unspecified)", "u": "%", "inhibition": -1.9}

Batch request: inhibition per item, same order as input.
1. O=C(Cn1cnc2ccccc2c1=O)NCC1COc2ccccc2O1 (stereo unspecified)
2. COc1cc(OC)cc(C(=O)NC(=S)N2CCN(c3ccc(C(F)(F)F)cc3[N+](=O)[O-])CC2)c1
3. COc1ccc(OCCNS(=O)(=O)Cc2ccccc2)cc1
4. O=C(c1ccc(N2CCOCC2)c([N+](=O)[O-])c1)N1CCN(c2ccccc2F)CC1
5. COc1ccccc1C(=O)NC(=S)Nc1ccc(N2CCOCC2)cc1
6. N#Cc1nc(N)nc(N(c2ccccc2)c2ccccc2)n1

1: -0.6; 2: 0.6; 3: 0.9; 4: 0; 5: -1.6; 6: 0

* * *

- experimental.protocol: blockers of Ca2+-induced mitochondrial swelling – biochemical, isolated mouse mitochondria, absorbance, primary screen (AID 602449);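 note: 0% = DMSO wells given calcium and 100% = 1 mM EGTA wells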
- condition.parameters: 30 min, at 10 µM, active compounds read high
In all, about 360,000 compounds went through this assay and about 5,000 (1.4%) were called active. The entries come from a sample that favours actives as a whole.
What inhibition was measured for each of the following?
Give bare numbers, in %.

List the reported inhibition of each molecule below.
1. COc1ccccc1P(=O)(c1ccccc1)c1ccccc1NC(C)=O (stereo not given)
2. COc1cc(CNCc2ccc(OC)c3ccccc23)cc(OC)c1OC
3. CCc1cccc(CC)c1NC(=O)COc1ccccc1C(=O)c1cc(C#N)c(=O)n(C2CCCCC2)c1
4. N/C(=N\OC(=O)CCCC(=O)O)c1ncc(C(F)(F)F)cc1Cl
5. O=C(c1ccc(-c2ccccc2)cc1)C1CCCN(C(=O)c2cncs2)C1 (stereo not given)

1. 0.1
2. 90.9
3. 1
4. -0.2
5. -1.8

Batch: inhibition for all items listed.
1. N/C(=N\OC(=O)Nc1ccc(Cl)c(Cl)c1)c1ncc(C(F)(F)F)cc1Cl
2. Cc1ccc(N(Cc2ccccc2O)C(=O)c2ccccc2F)cc1
3. CCCCn1c(N)c(N(CCC(C)C)C(=O)COC(=O)c2cccnc2OCC)c(=O)[nH]c1=O

88.1
0.4
0.7

Give inhibition for each listed item.
1. CC(=O)C1C(c2ccc(Cl)cc2)c2c(n[nH]c2C)CC1(C)O (stereo not given)
2. CN1CCC(N(C)C(=O)c2ccc(Cl)c(S(=O)(=O)Nc3ccc(Cl)cc3)c2)CC1

1: 1.5; 2: -0.7

* * *

So I've got a bunch of molecules here, and I need their inhibition values.
- experimental.protocol: blockers of Ca2+-induced mitochondrial swelling – biochemical, isolated mouse mitochondria, absorbance, primary screen (AID 602449);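 note: 0% = DMSO wells given calcium and 100% = 1 mM EGTA wells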
- condition.parameters: 30 min, at 10 µM, active compounds read high
Hit rate of the full screen: of about 360,000 compounds, about 5,000 (1.4%) were called active. Only a selection was taken, and actives are over-represented in it overall.
Numbers only, in %.

{"molecule": "CCN(C(=O)CSc1nnc(-c2ccc(OC(F)F)cc2)n1N)C1CCS(=O)(=O)C1 (stereo not given)", "inhibition, %": -1.1}
{"molecule": "CCCNC(=O)c1cc(C2CCCCN2S(=O)(=O)c2cn(C)cn2)on1 (stereo not given)", "inhibition, %": 0.2}

I need inhibition for every entry listed below, if you could help.
1. CCOCCCNC(=O)C1(O)c2cc(Br)ccc2NC(=O)N1c1ccc(C)c(C)c1 (stereo not given)
2. COc1ccc(C(C)(O)c2nc(-c3cc(F)cc(F)c3)cs2)cc1 (stereo not given)

[0.7, 1.2]

* * *

- experimental.protocol: blockers of Ca2+-induced mitochondrial swelling – biochemical, isolated mouse mitochondria, absorbance, primary screen (AID 602449);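 note: 0% = DMSO wells given calcium and 100% = 1 mM EGTA wells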
- condition.parameters: 30 min, at 10 µM, active compounds read high
Screen size: about 360,000 compounds; about 5,000 (1.4%) were called active. For the sample, actives were picked, then their nearest neighbours and some compounds at random.
property.measured: inhibition (%)
Give bare numbers, in %.

{"molecule": "COC(=O)C(Cc1c[nH]c2ccccc12)NC(=O)CCNC(=O)c1ccco1 (stereo unspecified)", "u": "%", "value": -1}
{"molecule": "O=c1c2ccccc2nc2n1C(CSCc1ccccc1)CS2 (stereo unspecified)", "u": "%", "value": 52.1}
{"molecule": "COc1cccc(CNc2ncc(-c3ccccc3)n2C)c1", "u": "%", "value": 2}

Lab note: each molecule below needs its inhibition filled in.
1. C#CCCCc1nc2ccccc2c(=O)n1N
2. O=C(CN1CCN(C(=O)c2ccco2)CC1)Nc1ccc(Cl)c(C(F)(F)F)c1
3. CCCOc1ccc(C(=O)C(CCC(CNCC)C(=O)c2ccc(OCCC)cc2)CNCC)cc1 (stereo unspecified)
4. CC1(C(=O)O)CCC(C(=O)Nc2ccc(Cl)c(Cl)c2)C1(C)C (stereo unspecified)
5. O=C(CC(O)(C(F)(F)F)C(F)(F)F)Nc1ccc(Cl)c(Cl)c1
6. O=c1c2ccccc2nc2n1C(CSc1ccc(Cl)cc1)CN2 (stereo unspecified)
7. CCC(=O)N1CCc2cc(S(=O)(=O)CCC(=O)N3CCN(c4ccccc4F)CC3)ccc21
8. Cn1c(-c2sccc2OCc2cccc(C(F)(F)F)c2)n[nH]c1=S

5.8
-0.1
73.6
3.1
84.6
-1.7
0.5
0.2

* * *

Give inhibition for every item shown.
- experimental.protocol: blockers of Ca2+-induced mitochondrial swelling – biochemical, isolated mouse mitochondria, absorbance, primary screen (AID 602449);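 note: 0% = DMSO wells given calcium and 100% = 1 mM EGTA wells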
- condition.parameters: 30 min, at 10 µM, active compounds read high
About 5,000 (1.4%) of roughly 360,000 compounds were called active. Shown is part of a subset that was picked to be rich in actives.
Give bare numbers, in %.

# example entries with known answers
{"mol": "CN(C)S(=O)(=O)c1cccc(NC(=O)Cc2ccsc2)c1", "u": "%", "inhibition": 0.2}
{"mol": "CN(c1ccccc1)S(=O)(=O)c1cccc(NC(=O)Cc2ccc(Cl)cc2)c1", "u": "%", "inhibition": 61.7}
{"mol": "CCOc1ccc(N2C(=O)/C(=C/c3ccc(C)o3)N(C)C2=S)cc1", "u": "%", "inhibition": 4.3}

Each compound below has a reported value. Please supply its inhibition.
1. CN(Cc1cccs1)C(=O)Cc1c[nH]c2ccccc12
2. COc1ccc(C)cc1S(=O)(=O)N(CC(=O)Nc1cccc([N+](=O)[O-])c1)c1ccc(C)cc1

1: 0.8; 2: 0.7

* * *

- experimental.protocol: blockers of Ca2+-induced mitochondrial swelling – biochemical, isolated mouse mitochondria, absorbance, primary screen (AID 602449);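 note: 0% = DMSO wells given calcium and 100% = 1 mM EGTA wells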
- condition.parameters: 30 min, at 10 µM
The whole screen tested about 360,000 compounds, of which about 5,000 (1.4%) were called active.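 The calls were made as follows: active = inhibition of 50% or more, scaled per plate between neutral and stimulator controls; inactive = the rest.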 Only a selection was taken, and actives are over-represented in it overall.
Select the correct class. Options are active, inactive and nothing else.

Illustrative cases are given below, each with its answer.
{"compound": "CCc1oc(-c2ccc(OC)cc2)c(C(=O)OCCCCCO)c1C(C)OCCO (centres undefined)", "discrete.label": "inactive"}
{"compound": "Cc1ccc(SCCSc2ncccn2)cc1", "discrete.label": "inactive"}
{"compound": "Cc1c(C)n2c(SCC(=O)NC3CCCC3)nnc2[nH]c1=O", "discrete.label": "inactive"}
{"compound": "CCN1CCC(O)(/C=C/c2ccc(C)cc2)C(C(=O)/C=C/c2ccc(C)cc2)C1 (centres undefined)", "discrete.label": "active"}

What is the recorded call for this compound in the test? CC(NC(=O)COC(=O)c1ccc2ccccc2n1)c1ccccc1 (centres undefined)
inactive

Try this compound next: "Cc1cc(C)c(SCCc2ccncc2)c(C)c1"
active

* * *

- experimental.protocol: blockers of Ca2+-induced mitochondrial swelling – biochemical, isolated mouse mitochondria, absorbance, primary screen (AID 602449);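 note: 0% = DMSO wells given calcium and 100% = 1 mM EGTA wells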
- condition.parameters: 30 min, at 10 µM, active compounds read high
Out of some 360,000 compounds screened, about 5,000 (1.4%) were called active. Many of the other results were omitted from the sample, so actives are more common in it than they were.
property.measured: inhibition (%)
Give bare numbers, in %.

Use these answered entries as a reference point.
{"compound": "COc1cc(NS(=O)(=O)c2ccc(NC(C)=O)cc2)cc(OC)c1", "u": "%", "inhibition": 54}
{"compound": "CCOC(=O)c1cc(=O)c2ccc(OCc3ccccc3)cc2o1", "u": "%", "inhibition": 0.1}
{"compound": "Cc1cccc(C(=O)OCC(=O)NC(C)C2CC3CCC2C3)c1O (configuration not stated)", "u": "%", "inhibition": 0.9}
{"compound": "COCCn1c(CN(Cc2ccccc2)Cc2ccccc2)nc2c1c(=O)n(C)c(=O)n2C", "u": "%", "inhibition": 0.9}
{"compound": "Cc1ccc(Nc2c3c(nc4ccccc24)CCC3)cc1", "u": "%", "inhibition": 79.8}
{"compound": "Cc1cc(C)c2nc(NC(=O)C3CCCO3)sc2c1 (configuration not stated)", "u": "%", "inhibition": -9.1}
{"compound": "COC(=O)c1c(C)[nH]c(C(=O)NCCc2ccc(S(N)(=O)=O)cc2)c1C", "u": "%", "inhibition": 0.1}
{"compound": "Oc1c(Cl)cc(Cl)c(Cl)c1Cc1c(O)c(Cl)cc(Cl)c1Cl", "u": "%", "inhibition": 80.8}

Provide inhibition values for the following items, in order.
1. CC(=O)c1c(C)[nH]c(C(=O)OCC(=O)Nc2c(C)cccc2C)c1C
2. CC(C)OCCCNc1ncnc2c1[nH]c1ccc(F)cc12
3. CCOC(=O)c1cc2cc(-c3c(C(=O)OCC)oc4cc(O)cc(O)c4c3=O)ccc2o1
4. Brc1ccc(Nc2c3c(nc4ncnn24)CCC3)cc1

[1.5, 88.4, 50.9, -4.1]
